# system-under-test: T1, EsCas13d, nuclease-dead (Eubacterium siraeum, UniProt B0MS50, R295A;H300A;R849A;H854A)
# T1 sequence: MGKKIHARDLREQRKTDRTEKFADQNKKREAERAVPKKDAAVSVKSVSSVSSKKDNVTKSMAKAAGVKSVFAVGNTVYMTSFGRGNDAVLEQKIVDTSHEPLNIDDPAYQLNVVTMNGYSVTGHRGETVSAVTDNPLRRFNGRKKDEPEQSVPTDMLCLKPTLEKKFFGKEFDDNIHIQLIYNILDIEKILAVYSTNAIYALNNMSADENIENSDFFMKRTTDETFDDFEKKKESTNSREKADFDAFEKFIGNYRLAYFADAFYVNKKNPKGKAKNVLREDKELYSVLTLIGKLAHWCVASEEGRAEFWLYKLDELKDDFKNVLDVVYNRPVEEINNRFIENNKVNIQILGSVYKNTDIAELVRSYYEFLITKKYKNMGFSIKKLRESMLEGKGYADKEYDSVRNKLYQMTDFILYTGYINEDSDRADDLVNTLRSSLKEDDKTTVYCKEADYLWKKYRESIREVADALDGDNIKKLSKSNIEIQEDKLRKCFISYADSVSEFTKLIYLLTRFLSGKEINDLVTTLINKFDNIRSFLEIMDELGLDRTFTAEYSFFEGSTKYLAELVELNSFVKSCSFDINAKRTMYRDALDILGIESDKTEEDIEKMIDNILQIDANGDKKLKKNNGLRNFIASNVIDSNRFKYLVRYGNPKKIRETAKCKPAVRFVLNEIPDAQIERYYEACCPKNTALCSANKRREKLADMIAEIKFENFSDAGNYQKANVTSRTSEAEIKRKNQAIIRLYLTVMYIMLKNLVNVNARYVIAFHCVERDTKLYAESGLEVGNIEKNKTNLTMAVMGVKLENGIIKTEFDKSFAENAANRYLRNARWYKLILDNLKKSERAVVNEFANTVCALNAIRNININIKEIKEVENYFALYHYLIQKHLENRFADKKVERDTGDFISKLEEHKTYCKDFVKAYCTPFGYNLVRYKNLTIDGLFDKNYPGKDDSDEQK
# procedure-summary: crRNA (strand 1, pre-loaded); Mg2+; 40 mM Tris-HCl pH 7.5, 150 mM NaCl, 6 mM MgCl2, 1 mM DTT, 0.1% Tween-20, 0.2 mg/ml BSA; 25 C; 10 min per concentration, then washed
# condition-set: tags: His6-TwinStrep-SUMO cleaved; N-terminal SNAP kept (SNAP-Surface 488); label: 3' end held by stalled T7 RNA polymerase
reported-metric: Kd

INSERT INTO measurements (binder, result) VALUES
  ('target 2 MT 5''PFS UUC 3''PFS ACA (mixed) RNA 1: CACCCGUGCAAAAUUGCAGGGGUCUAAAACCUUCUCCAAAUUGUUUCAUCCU RNA 2: GGGAAUGGAUCCACAUCUACGAAUUCUUCAGGAUGAAACAAUUUGGAGAAGACAAGAUCGGAAGAGCACACGU', '~21 nM'),
  ('target 1 MT 5''PFS ACA 3''PFS CGG (mixed) RNA 1: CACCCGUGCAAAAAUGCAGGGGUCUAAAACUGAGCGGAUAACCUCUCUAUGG RNA 2: GGGAAUGGAUCCACAUCUACGAAUUCACACCAUAGAGAGGUUAUCCGCUCACGGAGAUCGGAAGAGCACACGU', '~70 nM');

Moving on to the next binder.
Q. Could you please provide reported Kd for target 1 MT 5'PFS GAG 3'PFS CCG (mixed) RNA 1: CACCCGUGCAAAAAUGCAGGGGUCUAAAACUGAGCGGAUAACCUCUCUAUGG RNA 2: GGGAAUGGAUCCACAUCUACGAAUUCGAGCCAUAGAGAGGUUAUCCGCUCACCGAGAUCGGAAGAGCACACGU ? Thanks!
A. ~25 nM
